Kindly supply the reported Kd values for the records listed here.
# SYSTEM_UNDER_TEST: MAGEB2 peptide … / HLA-A*02:01 / b2m (human)
# PROTOCOL_DETAILS: FACS
Write it as a number; the unit nM goes unstated.

Challenge: Quick one: Kd of MA 03-D8 AS CC (L7E) (antibody, V domains shown) VH: EVQLLESGGGLVQPGGSLRLSCAASGFTFSSHAMSWVRQAPGKCLEWVSTISGSGGGTYYAASVKGRFTISRDNSKNTLYLQMNSLRAEDTAVYYCATGKGVHLGFDYWGQGTLVTVSS VL: SYVLTQPPSVSVAPGQTARITCGGNNIGSKSVHWYQQKPGQAPVMVVYDDNDRPSGIPERFSGSNFGNTATLIISRVEAGDEADYYCQVWDYRTLDWVFGCGTKLTVL ?
Response given: 0.5

Challenge: Can you share its Kd? I mean this binder: MA 10-G10 AS CC (T1I) (antibody, V domains shown) VH: EVQLLESGGGLVQPGGSLRLSCAASGFTFSSHAMSWVRQAPGKCLEWVSAISGSGGGTYNAASVKGRFTISRDNSKNTLYLQMNSLRAEDTAVYYCATGKGVHLGFDYWGQGTLVTVSS VL: SYVLTQPPSVSVAPGQTARITCGGNNIGSKSVHWYQQKPGQAPVMVVYDDNDRPSGIPERFSGSNSGNTATLTISRVEAGDEADYYCQVWDYVAPRHVFGCGTKLTVL
Response given: 1.7
